Measurement record for UniProtKB P39898; quantity recorded: pKi.
Sequence (P39898 whole entry): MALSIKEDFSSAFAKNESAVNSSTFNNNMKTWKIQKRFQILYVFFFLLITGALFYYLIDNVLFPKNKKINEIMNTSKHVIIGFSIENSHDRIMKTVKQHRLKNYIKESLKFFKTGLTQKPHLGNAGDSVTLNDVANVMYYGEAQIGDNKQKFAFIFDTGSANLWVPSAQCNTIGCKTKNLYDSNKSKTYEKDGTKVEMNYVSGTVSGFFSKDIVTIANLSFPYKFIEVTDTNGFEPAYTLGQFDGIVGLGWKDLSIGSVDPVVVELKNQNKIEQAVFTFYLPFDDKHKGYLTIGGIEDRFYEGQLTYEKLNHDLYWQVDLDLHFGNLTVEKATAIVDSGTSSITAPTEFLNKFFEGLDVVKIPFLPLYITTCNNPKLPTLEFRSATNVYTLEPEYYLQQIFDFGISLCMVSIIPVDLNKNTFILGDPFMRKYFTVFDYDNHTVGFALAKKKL
One number for each entry, as −log10 of the molar value.

Some compounds with recorded pKi:
# TEST SMILES, RECORDED VALUE
data = [
    ("CC(C)[C@H](NC(=O)c1ccccn1)C(=O)N[C@@H](Cc1ccccc1)[C@@H](O)CN[C@@H](Cc1ccc(-c2cccc(N)c2)cc1)C(N)=O", 7.20),
    ("CC(C)[C@H](NC(=O)c1ccccn1)C(=O)N[C@@H](Cc1ccccc1)[C@@H](O)CN[C@@H](Cc1ccc(-c2ccccc2)cc1)C(N)=O", 7.17),
    ("CC(C)[C@H](NC(=O)c1ccccn1)C(=O)N[C@@H](Cc1ccccc1)[C@@H](O)CN1C(=O)NC(=O)[C@@H]1Cc1ccc(-c2ccccc2)cc1", 5.69),
]

Provide pKi for all items below, preserving their order.
1. Cc1ccc(-c2cccc(C[C@H](NC[C@H](O)[C@H](Cc3ccccc3)NC(=O)[C@@H](NC(=O)c3ccccn3)C(C)C)C(N)=O)c2)cc1
2. COc1ccccc1-c1cccc(C[C@H](NC[C@H](O)[C@H](Cc2ccccc2)NC(=O)[C@@H](NC(=O)c2ccccn2)C(C)C)C(N)=O)c1

Reply text:
[5.96, 5.89]

###

What log10(Ki) was measured for each of the following?
Target: Plasmepsin II (Plasmodium falciparum, UniProt P46925)
Sequence (P46925 whole entry): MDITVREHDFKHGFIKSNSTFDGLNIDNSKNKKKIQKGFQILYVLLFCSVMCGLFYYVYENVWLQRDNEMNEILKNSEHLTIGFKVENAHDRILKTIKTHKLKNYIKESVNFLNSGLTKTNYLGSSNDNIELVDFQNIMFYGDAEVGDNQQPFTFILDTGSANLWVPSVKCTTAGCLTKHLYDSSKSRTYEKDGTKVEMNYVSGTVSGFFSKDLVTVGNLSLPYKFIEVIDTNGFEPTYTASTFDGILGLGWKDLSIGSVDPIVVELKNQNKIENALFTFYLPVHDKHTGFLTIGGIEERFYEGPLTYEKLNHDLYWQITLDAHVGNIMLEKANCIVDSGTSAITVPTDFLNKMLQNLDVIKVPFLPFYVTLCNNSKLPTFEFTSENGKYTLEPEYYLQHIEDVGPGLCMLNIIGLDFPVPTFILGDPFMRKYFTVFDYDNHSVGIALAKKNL
# values: log10(Ki), units nM

# TEST SMILES, log10(Ki)
records = [
    ("CC(C)[C@H](NC(=O)c1ccccn1)C(=O)N[C@@H](Cc1ccccc1)[C@@H](O)CN[C@@H](Cc1ccc(Br)cc1)C(N)=O", 2.73),
    ("CC(C)[C@H](NC(=O)c1ccccn1)C(=O)N[C@@H](Cc1ccccc1)[C@@H](O)CN1C(=O)NC(=O)[C@@H]1Cc1ccc(Br)cc1", 3.28),
    ("CC(C)C[C@H](NC(=O)[C@H](C)NC(=O)C[C@H](O)[C@H](Cc1ccccc1)NC(=O)[C@@H](NC(=O)c1ccccn1)C(C)C)C(N)=O", -0.25),
    ("Cc1ccc(-c2cccc(C[C@H](NC[C@H](O)[C@H](Cc3ccccc3)NC(=O)[C@@H](NC(=O)c3ccccn3)C(C)C)C(N)=O)c2)cc1", 2.97),
    ("CC(C)[C@H](NC(=O)c1ccccn1)C(=O)N[C@@H](Cc1ccccc1)[C@@H](O)CN[C@@H](Cc1cccc(-c2ccccc2)c1)C(N)=O", 2.76),
    ("Cc1ccc(-c2ccc(C[C@H](NC[C@H](O)[C@H](Cc3ccccc3)NC(=O)[C@@H](NC(=O)c3ccccn3)C(C)C)C(N)=O)cc2)cc1", 2.08),
]

Attention now turns to another entry.
Inquiry: So what's the measured log10(Ki) for this one? COc1ccccc1-c1cccc(C[C@H](NC[C@H](O)[C@H](Cc2ccccc2)NC(=O)[C@@H](NC(=O)c2ccccn2)C(C)C)C(N)=O)c1
Reply text: 3.16

###

Molecular target: UniProtKB P07339
Sequence (P07339 65-162 limits assumed): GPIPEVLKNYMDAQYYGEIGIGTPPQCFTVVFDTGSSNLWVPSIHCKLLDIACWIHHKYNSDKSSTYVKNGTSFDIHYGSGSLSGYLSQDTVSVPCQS
Sequence (P07339 169-412 limits assumed): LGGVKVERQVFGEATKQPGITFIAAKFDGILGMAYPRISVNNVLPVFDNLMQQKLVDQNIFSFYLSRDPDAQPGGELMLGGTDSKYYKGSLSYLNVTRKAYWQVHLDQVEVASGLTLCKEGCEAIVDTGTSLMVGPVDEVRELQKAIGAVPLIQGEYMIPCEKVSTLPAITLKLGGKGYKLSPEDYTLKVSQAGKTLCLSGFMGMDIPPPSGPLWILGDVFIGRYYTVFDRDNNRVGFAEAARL
METRIC: Ki

Some compounds with recorded Ki:
# TEST SMILES, METRIC, RECORDED VALUE
data = [
    ("CC(C)[C@H](NC(=O)c1ccccn1)C(=O)N[C@@H](Cc1ccccc1)[C@@H](O)CN[C@@H](Cc1ccc(-c2ccccc2)cc1)C(N)=O", "Ki", "> 2 µM"),
    ("CC(C)C[C@H](NC[C@H](O)[C@H](Cc1ccccc1)NC(=O)c1ccccn1)C(N)=O", "Ki", "> 2 µM"),
    ("Cc1ccc(-c2cccc(C[C@H](NC[C@H](O)[C@H](Cc3ccccc3)NC(=O)[C@@H](NC(=O)c3ccccn3)C(C)C)C(N)=O)c2)cc1", "Ki", "1.9 µM"),
]

Provide Ki for all items below, preserving their order.
1. CC(C)[C@H](NC(=O)c1ccccn1)C(=O)N[C@@H](Cc1ccccc1)[C@@H](O)CN[C@@H](Cc1cccc(-c2cccc(N)c2)c1)C(N)=O
2. CC(C)[C@H](NC(=O)c1ccccn1)C(=O)N[C@@H](Cc1ccccc1)[C@@H](O)CN[C@H](Cc1ccccc1)C(N)=O
3. COc1ccccc1-c1cccc(C[C@H](NC[C@H](O)[C@H](Cc2ccccc2)NC(=O)[C@@H](NC(=O)c2ccccn2)C(C)C)C(N)=O)c1
4. CC(C)[C@H](NC(=O)c1ccccn1)C(=O)N[C@@H](Cc1ccccc1)[C@@H](O)CN[C@@H](Cc1ccccc1)C(N)=O

Reply text:
["> 2 µM", "> 2 µM", "> 2 µM", "> 2.8 µM"]
